# Read-out: Monocyte Chemoattractant Protein-1 (MCP1), CCL2 (gene 6347)
# Procedure summary: BSK_LPS_MCP1: BioMAP Diversity Plus: LPS Assay for Monocyte Chemoattractant Protein-1 (MCP1) Biomarker Activity (AID 2283081)
# Experimental conditions: primary human HUVEC with PBMC; actives raise or lower the signal
Active and inactive are the calls of the source. The calls were made as follows: active = hit-call score of the fitted dose curve at least 0.9, where 1 is the maximum; inactive = score below 0.9.
One label from this list, please: active, inactive

Write down the call the test reported for this compound. Item: `O=C(O)c1[nH]n(-c2ccc(S(=O)(=O)O)cc2)c(=O)c1N=Nc1ccc(S(=O)(=O)O)cc1`
inactive

Write down the call the test reported for this compound. Item: `Nc1nc(=S)c2[nH]cnc2[nH]1`
inactive

Write down the call the test reported for this compound. Item: `O=NO`
inactive

Write down the call the test reported for this compound. Item: `Oc1ccc(O)cc1`
active

Write down the call the test reported for this compound. Item: `CCCCCCC(C=O)=Cc1ccccc1`
inactive

Write down the call the test reported for this compound. Item: `C/C=C/C=C/C(=O)O`
inactive

Write down the call the test reported for this compound. Item: `CC(N)=O`
inactive

Write down the call the test reported for this compound. Item: `COC(=O)CCCC(=O)OC`
inactive

Write down the call the test reported for this compound. Item: `NC1CCCCC1`
inactive

Write down the call the test reported for this compound. Item: CCCCC(CC)COP(=O)(OCC(CC)CCCC)OCC(CC)CCCC (stereo not drawn)
inactive

Write down the call the test reported for this compound. Item: `OCC(O)CO`
inactive

Write down the call the test reported for this compound. Item: `CC(=O)S[C@H](C(=O)N[C@H]1Cc2ccccc2[C@H]2CCC[C@@H](C(=O)O)N2C1=O)C(C)C`
inactive

Write down the call the test reported for this compound. Item: C#CC(O)C(CC)CCCC (stereo not drawn)
inactive

Write down the call the test reported for this compound. Item: `CC(C)c1cccc(C(C)C)c1`
inactive

Write down the call the test reported for this compound. Item: `CCCCCCCCCC[N+](C)(C)[O-]`
inactive

Write down the call the test reported for this compound. Item: `CC(C)OC(=O)C(C)(C)Oc1ccc(C(=O)c2ccc(Cl)cc2)cc1`
active

Write down the call the test reported for this compound. Item: CC(COCC(C)OC(=O)c1ccccc1)OC(=O)c1ccccc1 (stereo not drawn)
inactive

Write down the call the test reported for this compound. Item: `CCOCCOCCO`
inactive

Write down the call the test reported for this compound. Item: `O=C(NS(=O)(=O)/C=C/c1cccs1)c1ccc(F)cc1Br`
inactive

Write down the call the test reported for this compound. Item: `CN(C)C(=O)NC1(c2ccccc2)CCN(CCC[C@]2(c3ccc(Cl)c(Cl)c3)CCCN(C(=O)c3ccccc3)C2)CC1`
inactive

Write down the call the test reported for this compound. Item: `CCc1nc(N)nc(N)c1-c1ccc(Cl)cc1`
inactive

Write down the call the test reported for this compound. Item: `CN(C)CCCN1c2ccccc2Sc2ccc(Cl)cc21`
active

Write down the call the test reported for this compound. Item: `NCCOCCOCCN`
inactive

Write down the call the test reported for this compound. Item: Cc1c(C)c2c(c(C)c1O)CCC(C)(COc1ccc(CC3SC(=O)NC3=O)cc1)O2 (stereo not drawn)
active

Write down the call the test reported for this compound. Item: `O=C(N[C@@H](c1ccccc1)[C@@H]1CCCCN1)c1cccc(C(F)(F)F)c1Cl`
active

Write down the call the test reported for this compound. Item: `O=C(O)CN(CC(=O)O)CC(=O)O`
inactive

Write down the call the test reported for this compound. Item: `O=C1O[C@H]([C@H](O)CO)C(O)=C1O`
inactive

Write down the call the test reported for this compound. Item: `NC=O`
inactive
